Data origin, for the record: patent US20090143440A1

Sequence of the target: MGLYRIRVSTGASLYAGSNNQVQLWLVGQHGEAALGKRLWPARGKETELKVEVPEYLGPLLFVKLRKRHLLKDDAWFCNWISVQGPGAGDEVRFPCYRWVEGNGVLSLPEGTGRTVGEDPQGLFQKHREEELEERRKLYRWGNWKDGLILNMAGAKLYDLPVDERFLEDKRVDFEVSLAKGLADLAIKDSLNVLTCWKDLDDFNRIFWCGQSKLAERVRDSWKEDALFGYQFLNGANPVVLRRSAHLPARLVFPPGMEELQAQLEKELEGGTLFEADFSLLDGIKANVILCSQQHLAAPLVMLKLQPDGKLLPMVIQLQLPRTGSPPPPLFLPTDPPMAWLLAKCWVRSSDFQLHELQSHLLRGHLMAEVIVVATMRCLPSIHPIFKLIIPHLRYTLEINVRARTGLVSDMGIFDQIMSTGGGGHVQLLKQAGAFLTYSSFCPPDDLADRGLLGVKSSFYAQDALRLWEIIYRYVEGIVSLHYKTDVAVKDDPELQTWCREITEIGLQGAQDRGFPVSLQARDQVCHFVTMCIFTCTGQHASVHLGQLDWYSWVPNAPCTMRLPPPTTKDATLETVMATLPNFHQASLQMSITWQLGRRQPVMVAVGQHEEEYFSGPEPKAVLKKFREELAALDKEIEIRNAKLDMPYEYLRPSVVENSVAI
pIC50: −log10 of the molar value.
assayMetric: pIC50

I. COc1ccc(NC(=O)c2cc(Cl)[nH]n2)nc1 [Example 29]
II. Cc1ccnc(NC(=O)c2cc[nH]n2)c1 [Example 44]
[ask] Which value of pIC50 is numerically greater: that of I or that of II ? When you have decided, please share the label of that item.
[reply] I
(I: 6.91, II: 6.46)
